Data provenance: patent US20260356856A1

# subject.of.test: KRas WT (Homo sapiens, UniProt P01116)
# Construct: Biotinylated KRas (corresponding to amino acids 1-169, produced at Accelegan Inc.); biotin (biotinylated); purchased Accelegan Inc
# Sequence (P01116 1-169 isoform P01116-2): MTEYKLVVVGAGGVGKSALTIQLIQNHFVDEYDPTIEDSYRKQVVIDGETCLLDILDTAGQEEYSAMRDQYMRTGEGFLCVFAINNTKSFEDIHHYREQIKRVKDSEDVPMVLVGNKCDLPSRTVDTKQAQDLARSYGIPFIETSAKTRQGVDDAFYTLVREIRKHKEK
# assay.remarks: KRas binding assay, TR-FRET displacement of Cy5 labelled tracer
# protocol.conditions: 60-minute incubation at room temperature, 1% DMSO, pH 7.5
quantity.name: IC50 (nM)

# compound, IC50 [nM]
data = [
    ("O=C(Oc1c(F)cccc1F)[C@@H]1[C@@H]2C[C@H]1CN(c1nc(OCC34CCCN3CCC4)nc3c(F)c(-c4cccc5cccc(F)c45)ncc13)C2 [Example 5]", 34400),
    ("CC(C)C(=O)N(C)C(=O)C1CCN(c2nc(OC[C@@]34CCCN3C[C@H](F)C4)nc3c(F)c(-c4ccc(F)c5sc(N)c(C#N)c45)c(Cl)cc23)CC1 [Example 206]", 8),
    ("CCc1c(F)ccc2cc(O)cc(-c3ncc4c(N5C[C@H]6C[C@H](C(=O)n7ccc(C)n7)[C@H]6C5)nc(OC[C@@]56CCCN5C[C@H](F)C6)nc4c3F)c12 [Example 161]", 282),
    ("CCc1c(F)ccc2cc(O)cc(N3CCc4c(nc(OC[C@@]56CCCN5C[C@H](F)C6)nc4N4CCCC(C(=O)n5ccc(C)n5)CC4)C3)c12 (stereo partly drawn) [Example 145]", 331),
    ("Cc1ccn(C(=O)CCCN(C)c2cc(O[C@@H](C)[C@@H]3CCCN3C)nc(-c3noc([C@@]4(C)CCCc5sc(N)c(C#N)c54)n3)n2)n1 [Example 322]", 525),
]

a = CCc1c(F)ccc2cc(O)cc(-c3ncc4c(N5CCC(C(=O)NC(C)=O)CC5)nc(OC[C@@]56CCCN5C[C@H](F)C6)nc4c3F)c12 [Example 212]
b = CN(CCN(C)c1nc(OC[C@@]23CCCN2C[C@H](F)C3)nc2c(F)c(-c3ccc(F)c4sc(N)c(C#N)c34)c(Cl)cc12)C(=O)n1nccn1 (single isomer, unassigned) [Example 202]
c = Cc1ccn(C(=O)C2CCN(c3nc(OC[C@@]45CCCN4C[C@H](F)C5)nc4c(F)c(-c5ccc(F)c6sc(N)c(C#N)c56)c(Cl)cc34)C2)n1 (stereo partly drawn) [Example 139]
*Q* Descending sort on IC50 required. Your task in answering is to list the labels in the requested order.
*A* a, c, b

###

# subject.of.test: KRas-mediated phosphorylation of ERK in MKN1 cells (Homo sapiens, UniProt P01116)
# Construct: pERK HTRF read-out
# Sequence (P01116 1-188 isoform P01116-2): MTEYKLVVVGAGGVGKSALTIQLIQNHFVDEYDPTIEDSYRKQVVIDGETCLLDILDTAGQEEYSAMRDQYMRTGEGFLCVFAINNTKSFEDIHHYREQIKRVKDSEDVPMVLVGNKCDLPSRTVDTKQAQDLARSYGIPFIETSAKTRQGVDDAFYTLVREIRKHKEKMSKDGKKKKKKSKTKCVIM
# assay.remarks: Inhibition of KRas-mediated phosphorylation of ERK (HTRF), MKN1 cells
# Assay type: cell-based
# protocol.conditions: MKN1 cells (KRas WT); HTRF pERK; 3 h incubation
quantity.name: IC50 (nM)

A = N#Cc1c(N)sc2c(F)ccc(-c3c(Cl)cc4c(N5CCN(C(=O)n6ccnc6)CC5)nc(OC[C@@]56CCCN5C[C@H](F)C6)nc4c3F)c12
B = CN(CCN(C)c1nc(OC[C@@]23CCCN2C[C@H](F)C3)nc2c(F)c(-c3ccc(F)c4sc(N)c(C#N)c34)c(Cl)cc12)C(=O)n1nccn1 (single isomer, unassigned)
C = CCc1c(F)ccc2cc(O)cc(-c3ncc4c(N5CC(CC(=O)n6ccc(C)n6)C5)nc(OC[C@@]56CCCN5C[C@H](F)C6)nc4c3F)c12
*Q* Put the above molecules in order of rising IC50, beginning with the smallest. Output spec: labels arranged per the requested ranking.
*A* A, B, C
(A: 25 nM, B: 142 nM, C: 6390 nM)

###

# subject.of.test: KRas G12C (Homo sapiens, UniProt P01116, G12C)
# Construct: Biotinylated KRas (corresponding to amino acids 1-169, produced at Accelegan Inc.); biotin (biotinylated); purchased Accelegan Inc
# Sequence (P01116 1-169 isoform P01116-2 G12C): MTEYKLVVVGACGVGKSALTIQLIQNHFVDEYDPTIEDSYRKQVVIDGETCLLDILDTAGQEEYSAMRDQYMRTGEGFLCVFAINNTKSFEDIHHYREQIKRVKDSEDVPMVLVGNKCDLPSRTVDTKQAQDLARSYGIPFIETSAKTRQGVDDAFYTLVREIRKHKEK
# assay.remarks: KRas binding assay, TR-FRET displacement of Cy5 labelled tracer
# protocol.conditions: 60-minute incubation at room temperature, 1% DMSO, pH 7.5
quantity.name: IC50 (nM)

Solved cases below.
# compound, units.text, result.value
measured = [
    ("Cc1ccn(C(=O)C2CCN(c3nc(OC[C@@]45CCCN4C[C@H](F)C5)nc4c(F)c(-c5ccc(F)c6sc(N)c(C#N)c56)c(Cl)cc34)CC2)n1", "nM", 17),
    ("O=C(Oc1ccc(C(F)(F)F)cc1)C1CCCN(c2nc(OCC34CCCN3CCC4)nc3c(F)c(-c4cccc5cccc(F)c45)ncc23)CC1 (stereo not drawn)", "nM", 3440),
]

P = Cc1ccn(C(=O)CCN(C)c2cc(O[C@@H](C)[C@@H]3CCCN3C)nc(-c3noc([C@]4(C)CCCc5sc(N)c(C#N)c54)n3)n2)n1
Q = CCc1c(F)ccc2cc(O)cc(-c3ncc4c(N5CCC(COC)(C(=O)n6ccc(C)n6)CC5)nc(OC[C@@]56CCCN5C[C@H](F)C6)nc4c3F)c12
*Q* Between P and Q , which one shows the smaller IC50 number? Lab note: record the label of whichever item you select.
*A* P
(P: 131 nM, Q: 2470 nM)

1 = CCc1c(F)ccc2cc(O)cc(-c3ncc4c(NC[C@@H]5C[C@H]5C(=O)N(C)C(C)=O)nc(OC[C@@]56CCCN5C[C@H](F)C6)nc4c3F)c12
2 = CCc1c(F)ccc2cc(O)cc(-c3ncc4c(NCC5CC(C(=O)n6ccc(C)n6)C5)nc(OC[C@@]56CCCN5C[C@H](F)C6)nc4c3F)c12 (stereo partly drawn)
3 = N#Cc1ccc(OC(=O)C2CCN(c3nc(OCC45CCCN4CCC5)nc4c(F)c(-c5cccc6cccc(F)c56)ncc34)CC2)cc1
4 = CCc1c(F)ccc2cc(O)cc(N3CCc4c(nc(OC[C@@]56CCCN5C[C@H](F)C6)nc4N4CCCC(C(=O)n5ccc(C)n5)CCC4)C3)c12
5 = Cc1ccn(C(=O)C2C[C@@H]3CN(c4nc(OC[C@@]56CCCN5C[C@H](F)C6)nc5c(F)c(-c6ccc(F)c7sc(N)c(C#N)c67)c(Cl)cc45)C[C@@H]3C2)n1 (stereo partly drawn)
*Q* Kindly order the items shown according to IC50, from the highest value down. Answer by writing out the labels in the requested order.
*A* 4, 3, 5, 1, 2

1 = Cn1ccc(COC(=O)C2CCN(c3nc(OC[C@@]45CCCN4C[C@H](F)C5)nc4c(F)c(-c5ccc(F)c6sc(N)c(C#N)c56)c(Cl)cc34)CC2)n1
2 = N#Cc1c(N)sc2c(F)ccc(-c3c(Cl)cc4c(N5CCCC(C(=O)n6cccn6)CC5)nc(OC[C@@]56CCCN5C[C@H](F)C6)nc4c3F)c12 (stereo partly drawn)
*Q* // pick larger IC50 from pair: 1 vs 2 # reply format: chosen label
*A* 1

###

# subject.of.test: KRas G12C (Homo sapiens, UniProt P01116, G12C)
# Construct: Biotinylated KRas (corresponding to amino acids 1-169, produced at Accelegan Inc.); biotin (biotinylated); purchased Accelegan Inc
# assay.remarks: KRas binding assay, TR-FRET displacement of Cy5 labelled tracer
# protocol.conditions: 60-minute incubation at room temperature, 1% DMSO, pH 7.5
quantity.name: IC50 (nM)

# compound, units.text, result.value
measured = [
    ("CCc1c(F)ccc2cc(O)cc(-c3ncc4c(N5CCCCC(C(=O)n6ccc(C)n6)CC5)nc(OC[C@@]56CCCN5C[C@H](F)C6)nc4c3F)c12 (some centres unmarked) [Example 53]", "nM", 7),
    ("CN(C)c1ccn(C(=O)C2CCCN(c3nc(OC[C@@]45CCCN4C[C@H](F)C5)nc4c(F)c(-c5ccc(F)c6sc(N)c(C#N)c56)c(Cl)cc34)CC2)n1 (some centres unmarked) [Example 188]", "nM", 8),
]

a = CCc1c(F)ccc2cc(O)cc(-c3ncc4c(N5CCCC6CC6(C(=O)n6ccc(C)n6)CC5)nc(OC[C@@]56CCCN5C[C@H](F)C6)nc4c3F)c12 (some centres unmarked) [Example 117]
b = CC(=O)N(C)C(=O)[C@@H]1C[C@@H]2CN(c3nc(OC[C@@]45CCCN4C[C@H](F)C5)nc4c(F)c(-c5ccc(F)c6sc(N)c(C#N)c56)c(Cl)cc34)C[C@@H]2C1 [Example 237]
*Q* # min-compare on IC50 between a and b Write the label of whichever entry you select.
*A* b

###

# subject.of.test: KRas WT (Homo sapiens, UniProt P01116)
# Construct: Biotinylated KRas (corresponding to amino acids 1-169, produced at Accelegan Inc.); biotin (biotinylated); purchased Accelegan Inc
# assay.remarks: KRas binding assay, TR-FRET displacement of Cy5 labelled tracer
# protocol.conditions: 60-minute incubation at room temperature, 1% DMSO, pH 7.5
quantity.name: IC50 (nM)

Solved cases below.
# compound, units.text, IC50
records = [
    ("CCc1c(F)ccc2cc(O)cc(-c3ncc4c(N5CCC(C(=O)N(C)C(C)=O)CC5)nc(OC[C@@]56CCCN5C[C@H](F)C6)nc4c3F)c12 [Example 155]", "nM", 140),
    ("CCc1c(F)ccc2cc(O)cc(N3CCc4c(nc(OC[C@@]56CCCN5C[C@H](F)C6)nc4N4CCCCC(C(=O)n5ccc(C)n5)CC4)C3)c12 (stereo partly drawn) [Example 148]", "nM", 147),
    ("N#Cc1ccccc1OC(=O)[C@@H]1[C@@H]2CC[C@H]1CN(c1nc(OCC34CCCN3CCC4)nc3c(F)c(-c4cccc5cccc(F)c45)ncc13)C2 [Example 21]", "nM", 52200),
    ("CCc1c(F)ccc2cc(O)cc(N3CCc4c(nc(OC[C@@]56CCCN5C[C@H](F)C6)nc4N4CCC(C(=O)n5ccc(C)n5)CC4)C3)c12 [Example 146]", "nM", 412),
    ("CN(CCCC(=O)Nc1ccncc1)c1nc(OC[C@@]23CCCN2C[C@H](F)C3)nc2c(F)c(-c3ccc(F)c4sc(N)c(C#N)c34)c(Cl)cc12 [Example 269]", "nM", 9),
    ("CCc1c(F)ccc2cc(O)cc(-c3ncc4c(N(C)CCCS(=O)(=O)n5cccn5)nc(OC[C@@]56CCCN5C[C@H](F)C6)nc4c3F)c12 [Example 230]", "nM", 91),
]

1 = CCc1c(F)ccc2cc(O)cc(-c3ncc4c(N5CCCCCC(C(=O)n6ccc(C)n6)C5)nc(OC[C@@]56CCCN5C[C@H](F)C6)nc4c3F)c12 (stereo partly drawn) [Example 55]
2 = CCc1c(F)ccc2cc(O)cc(N3CCc4c(nc(OC[C@@]56CCCN5C[C@H](F)C6)nc4N4CCC(C(=O)n5ccc(C)n5)C4)C3)c12 (stereo partly drawn) [Example 197]
3 = CCc1c(F)ccc2cc(O)cc(-c3ncc4c(N(C)CCCC(=O)N(C)C(C)=O)nc(OC[C@@]56CCCN5C[C@H](F)C6)nc4c3F)c12 [Example 221]
4 = Cc1ccn(C(=O)[C@@H]2C[C@H]2CNc2nc(OC[C@@]34CCCN3C[C@H](F)C4)nc3c(F)c(-c4ccc(F)c5sc(N)c(C#N)c45)c(Cl)cc23)n1 [Example 181]
5 = O=CC1CCN(c2nc(OCC34CCCN3CCC4)nc3c(F)c(-c4cccc5cccc(F)c45)ncc23)CC1 [Example 38]
*Q* Task for the reader: rank each entry by its IC50, from the minimum upward. Form entry: labels listed in requested order.
*A* 1, 4, 3, 2, 5
